Listed here: items and their measured recombinant UMI read abundance (log10).
# testName: recombinant UMI read abundance after kanamycin selection (control-corrected) (log10(CPM+1)); higher = more efficient recombination; extreme values may be limits of the assay; sequences stand for … in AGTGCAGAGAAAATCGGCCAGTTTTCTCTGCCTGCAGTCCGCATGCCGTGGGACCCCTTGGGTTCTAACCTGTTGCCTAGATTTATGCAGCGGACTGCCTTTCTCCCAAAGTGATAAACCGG…AGGTTGGTTTCACT; site = the 11-nt donor;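 also: IS621 bridge recombinase in Escherichia coli cells against a fixed T5 target plasmid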
Please respond with just the number, no unit label.

| seq | outcomeMeasure | val |
| --- | --- | --- |
| CCCTCCTCATGGACCGGTTTTCCCGGTAATCCGTATTTGCC (site CCCTCCTCTGG) | recombinant UMI read abundance (log10) | 2.25 |
| GCTACTGCATGGACCGGTTTTCCCGGTAATCCGTATTTGAG (site GCTACTGCTCT) | recombinant UMI read abundance (log10) | 1.49 |
| ACTATTGCATGGACCGGTTTTCCCGGTAATCCGTATTTGGT (site ACTAGTGCTAC) | recombinant UMI read abundance (log10) | 0.023 |

Kindly note the recorded recombinant UMI read abundance (log10) for CCATTCTCATGGACCGGTTTTCCCGGTAATCCGTATTTGGG (site CCATTCTCTCC) , which is 0

Per the record, GTAGTCGCATGGACCGGTTTTCCCGGTAATCCGTATTTGCC (site GTAGTCGCTCG) has recombinant UMI read abundance (log10) of 0.819

Record summary for GTAGGCACATGGACCGGTTTTCCCGGTAATCCGTATTTGTA (site GTATGCACTTA) : reported recombinant UMI read abundance (log10) = 0.019

Reported recombinant UMI read abundance (log10) ( AAGCCTTCATGGACCGGTTTTCCCGGTAATCCGTATTTGGT (site TAGCCTTCTAC) ) = 0.12

Form: sequence = ACTTCGTCATGGACCGGTTTTCCCGGTAATCCGTATTTGTG (site ACTTCGTCTCA) ; recombinant UMI read abundance (log10) = 0.306

get_value(item= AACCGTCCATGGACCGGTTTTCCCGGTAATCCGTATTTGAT (site AACCGTCCTAG) , readout=recombinant UMI read abundance (log10)) returns 0
